# target-desc: T1, PUF4 RNA-binding domain (Saccharomyces cerevisiae, UniProt P25339 537-888)
# T1 sequence: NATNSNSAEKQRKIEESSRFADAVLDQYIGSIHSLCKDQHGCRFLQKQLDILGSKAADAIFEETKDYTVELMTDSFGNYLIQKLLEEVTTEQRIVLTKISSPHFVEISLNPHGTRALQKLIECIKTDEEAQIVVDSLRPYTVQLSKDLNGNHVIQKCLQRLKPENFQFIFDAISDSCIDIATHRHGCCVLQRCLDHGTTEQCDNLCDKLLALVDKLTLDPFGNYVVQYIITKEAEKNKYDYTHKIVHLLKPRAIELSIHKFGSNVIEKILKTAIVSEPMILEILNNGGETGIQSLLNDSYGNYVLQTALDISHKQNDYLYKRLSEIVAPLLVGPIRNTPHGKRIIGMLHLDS
# test-description: Mg; RNA-MaP; 20 mM Na-HEPES pH 7.4, 30 mM KOAc, 0.75 mM MgCl2, 0.1% Tween-20, 5% glycerol, 0.1 mg/mL BSA, 2 mM DTT; 25 C; 0.0125-409.6 nM protein
# measurement-context: tags: N-His6-TEV cleaved; C-SNAP kept, Cy3B-labelled; label: tethered on chip by stalled RNA polymerase
assay-metric: Kd (nM)
The reply should contain only the number, in nM.

binder	assay-metric	numeric-result
Id_ii_S4_P3E.2_K3.1_C3.2_[T-1C]_H3.1_A3.1_F3.1_T3.2_[T9C]_[A10T] (ssRNA) RNA: UUUGACAACUGAUCGUUCUUUCUCCUGUAUAUACUUUCUUUCUCGAUCAGUUGUCUUU	Kd	1.47
UCUCUUUAUGUAUAUAGCUCUCUU (ssRNA) [Id_ii_S1_P3E.2_K3.1_C3.2_[C-2T]_[T-1A]_H3.1_A3.1_F3.1_T3.2_[T9G]_[A10C]]	Kd	6.81

Let us examine a further case.
Documented Kd of Ic_S4_P4E.1_K4.1_C4.1_H4.1_A4.1_[T5A]_[A6C]_F4.1_[A9G]_T4.1 (ssRNA) RNA: UUUGACAACUGAUCGUUCUUUCUUGUAACUUGUUCUUUCUCGAUCAGUUGUCUUU : 84.8
